# System: S. aureus OWPH 1773
# method: Determination of minimal inhibitory concentration (MIC)-2, new quinolone-resistant MRSA
# Type: cell-based
# conditionSet: Staphylococcus aureus, OWPH1773, 18 h; S. aureus OWPH 1773, new quinolone-resistant and methicillin-resistant; same procedure as Test Example 1
Below, each entry is listed with its recorded MIC.
quantityKind: MIC (µg/mL)

CC1Sc2c(C(=O)O)c(=O)c3cc(F)c(-c4ccc(N)cc4)cc3n21 (stereo not drawn)	0.78
CC1Sc2c(C(=O)O)c(=O)c3cc(F)c(-c4ccc(N)cc4)c(F)c3n21 (stereo not drawn)	0.2
CC1Sc2c(C(=O)O)c(=O)c3cc(F)c(N4CCNCC4)cc3n21 (stereo not drawn) [Control, reference compound]	100
COc1c(-c2ccccc2)c(F)cc2c(=O)c(C(=O)O)c3n(c12)C(C)S3 (stereo not drawn)	0.39

###

This listing pairs compounds with measured MIC.
# Test system: Staphylococcus aureus OWPH 1984 (MRSA)
# method: Determination of minimal inhibitory concentration of growth (MIC)-1, agar plate dilution method
# Format: cell-based
# conditionSet: Staphylococcus aureus, MRSA, 18 h, Staphylococcus aureus OWPH 1984 (MRSA); agar plate dilution, 10⁶ CFU/ml, 37°C, 18 hours; read-out: MIC
quantityKind: MIC (µg/mL)

COc1c(-c2ccccc2)c(F)cc2c(=O)c(C(=O)O)c3n(c12)CS3	0.025
CC1Sc2c(C(=O)O)c(=O)c3cc(F)c(-c4ccc(N)cc4)c(F)c3n21 (stereo not shown)	0.012
O=C(O)c1c2n(c3c(F)c(-c4ccccc4)c(F)cc3c1=O)CS2	0.025
CC1Sc2c(C(=O)O)c(=O)c3cc(F)c(-c4ccc(O)cc4)cc3n21 (stereo not shown)	0.012
O=C(O)c1c2n(c3cc(-c4ccccc4)c(F)cc3c1=O)CS2	0.025
CC1Sc2c(C(=O)O)c(=O)c3cc(F)c(-c4ccc(N)cc4)cc3n21.Cl (stereo not shown)	0.012
CC1Sc2c(C(=O)O)c(=O)c3cc(F)c(-c4ccccc4)cc3n21 (stereo not shown)	0.012
CC1COc2c(N3CCN(C)CC3)c(F)cc3c(=O)c(C(=O)O)cn1c23 (racemic) [OFLX, ofloxacin, reference compound]	0.39
COc1ccc(-c2cc3c(cc2F)c(=O)c(C(=O)O)c2n3C(C)S2)cc1 (stereo not shown)	0.025

###

The entries below are paired with their reported MIC.
# Tested on: Staphylococcus aureus 209-P JC-1
# method: Determination of minimal inhibitory concentration of growth (MIC)-1, agar plate dilution method
# Type: cell-based
# conditionSet: Staphylococcus aureus, 209P, 18 h, Staphylococcus aureus 209-P JC-1; agar plate dilution, 10⁶ CFU/ml, 37°C, 18 hours; read-out: MIC
quantityKind: MIC (µg/mL)

CC1Sc2c(C(=O)O)c(=O)c3cc(F)c(N4CCNCC4)cc3n21 (centres unmarked) [Control, reference compound]	0.1
O=C(O)c1c2n(c3c(F)c(-c4ccccc4)c(F)cc3c1=O)CS2 [Example 19]	0.012
CC1Sc2c(C(=O)O)c(=O)c3cc(F)c(-c4ccccc4)c(F)c3n21 (centres unmarked) [Example 24]	0.012
Nc1ccc(-c2cc3c(cc2F)c(=O)c(C(=O)O)c2n3CS2)cc1 [Example 31]	0.012
COc1ccc(-c2cc3c(cc2F)c(=O)c(C(=O)O)c2n3C(C)S2)cc1 (centres unmarked) [Example 38]	0.1
COc1c(-c2ccccc2)c(F)cc2c(=O)c(C(=O)O)c3n(c12)CS3 [Example 21]	0.05
COc1c(-c2ccccc2)c(F)cc2c(=O)c(C(=O)O)c3n(c12)C(C)S3 (centres unmarked) [Example 26]	0.025
CC1Sc2c(C(=O)O)c(=O)c3cc(F)c(-c4ccccc4)cc3n21 (centres unmarked) [Example 5]	0.025
CNc1ccc(-c2c(F)cc3c(=O)c(C(=O)O)c4n(c3c2OC)C(C)S4)cc1 (centres unmarked) [Example 49]	0.025
CNc1ccc(-c2cc3c(cc2F)c(=O)c(C(=O)O)c2n3CS2)cc1 [Example 46]	0.025
COc1c(-c2ccc(N)cc2)c(F)cc2c(=O)c(C(=O)O)c3n(c12)C(C)S3 (centres unmarked) [Example 27]	0.012
CC1COc2c(N3CCN(C)CC3)c(F)cc3c(=O)c(C(=O)O)cn1c23 (racemic) [OFLX, ofloxacin, reference compound]	0.39
CCNc1ccc(-c2cc3c(cc2F)c(=O)c(C(=O)O)c2n3C(C)S2)cc1 (centres unmarked) [Example 47]	0.025
O=C(O)c1c2n(c3cc(-c4ccccc4)c(F)cc3c1=O)CS2 [Example 18]	0.012
CC1Sc2c(C(=O)O)c(=O)c3cc(F)c(-c4ccc(N)cc4)cc3n21.Cl (centres unmarked) [Example 55]	0.025

###

Some compounds, each annotated with its measured MIC.
# Test system: S. aureus OWPH 2127
# method: Determination of minimal inhibitory concentration (MIC)-2, new quinolone-resistant MRSA
# Type: cell-based
# conditionSet: Staphylococcus aureus, OWPH2127, 18 h; S. aureus OWPH 2127, new quinolone-resistant and methicillin-resistant; same procedure as Test Example 1
quantityKind: MIC (µg/mL)

CC1Sc2c(C(=O)O)c(=O)c3cc(F)c(-c4ccc(N)cc4)cc3n21 (stereo not drawn) [Example 4]	1.56
COc1c(-c2ccccc2)c(F)cc2c(=O)c(C(=O)O)c3n(c12)C(C)S3 (stereo not drawn) [Example 26]	1.56
CC1Sc2c(C(=O)O)c(=O)c3cc(F)c(-c4ccc(N)cc4)c(F)c3n21 (stereo not drawn) [Example 25]	0.39

###

# System: S. aureus Sh 44
# method: Determination of minimal inhibitory concentration (MIC)-2, new quinolone-resistant MRSA
# Format: cell-based
# conditionSet: Staphylococcus aureus, SH44, 18 h; S. aureus Sh 44, new quinolone-resistant and methicillin-resistant; same procedure as Test Example 1
MIC by entry:
quantityKind: MIC (µg/mL)

CC1Sc2c(C(=O)O)c(=O)c3cc(F)c(N4CCNCC4)cc3n21 (stereo not drawn) [Control, reference compound]	50
COc1c(-c2ccccc2)c(F)cc2c(=O)c(C(=O)O)c3n(c12)C(C)S3 (stereo not drawn) [Example 26]	0.78
CC1Sc2c(C(=O)O)c(=O)c3cc(F)c(-c4ccc(N)cc4)c(F)c3n21 (stereo not drawn) [Example 25]	0.2
CC1Sc2c(C(=O)O)c(=O)c3cc(F)c(-c4ccc(N)cc4)cc3n21 (stereo not drawn) [Example 4]	0.78

###

# System: Staphylococcus epider-midis IFO 12993
# method: Determination of minimal inhibitory concentration of growth (MIC)-1, agar plate dilution method
# Format: cell-based
# conditionSet: Staphylococcus, IFO12993, 18 h, Staphylococcus epider-midis IFO 12993; agar plate dilution, 10⁶ CFU/ml, 37°C, 18 hours; read-out: MIC
quantityKind: MIC (µg/mL)

CNc1ccc(-c2c(F)cc3c(=O)c(C(=O)O)c4n(c3c2OC)C(C)S4)cc1 (centres unmarked) [Example 49]	0.012
CC1Sc2c(C(=O)O)c(=O)c3cc(F)c(-c4ccccc4)cc3n21 (centres unmarked) [Example 5]	0.025
CC1Sc2c(C(=O)O)c(=O)c3cc(F)c(N4CCNCC4)cc3n21 (centres unmarked) [Control, reference compound]	0.2
CC1COc2c(N3CCN(C)CC3)c(F)cc3c(=O)c(C(=O)O)cn1c23 (racemic) [OFLX, ofloxacin, reference compound]	0.39

###

# System: Bacillus subtilis ATCC 6633
# method: Determination of minimal inhibitory concentration of growth (MIC)-1, agar plate dilution method
# Type: cell-based
# conditionSet: ATCC6633; Bacillus subtilis ATCC 6633; agar plate dilution, 10⁶ CFU/ml, 37°C, 18 hours; read-out: MIC
# Description: Method: MIC was determined by the agar plate dilution method in accordance with the standard protocol of Japan Society of Chemotherapy (cf. Chemotherapy 29 (1), 76-79, 1981). Each bacterial culture obtained by 18-hour incubation in a sensitivity assay bouillon medium at 37°C was diluted to 10⁶ CFU/ml with the same medium. […] The MIC value was then determined. […]
Recorded MIC by entry
quantityKind: MIC

COc1c(-c2ccccc2)c(F)cc2c(=O)c(C(=O)O)c3n(c12)CS3	25 ng/mL
COc1c(-c2ccc(N)cc2)c(F)cc2c(=O)c(C(=O)O)c3n(c12)C(C)S3 (stereo not drawn)	≤ 6 ng/mL
CC1Sc2c(C(=O)O)c(=O)c3cc(F)c(-c4ccc(O)cc4)cc3n21 (stereo not drawn)	≤ 6 ng/mL
CNc1ccc(-c2c(F)cc3c(=O)c(C(=O)O)c4n(c3c2OC)C(C)S4)cc1 (stereo not drawn)	≤ 6 ng/mL
CC1Sc2c(C(=O)O)c(=O)c3cc(F)c(-c4ccc(N)cc4)cc3n21.Cl (stereo not drawn)	≤ 6 ng/mL
CNc1ccc(-c2cc3c(cc2F)c(=O)c(C(=O)O)c2n3CS2)cc1	≤ 6 ng/mL
Nc1ccc(-c2cc3c(cc2F)c(=O)c(C(=O)O)c2n3CS2)cc1	≤ 6 ng/mL
CC1Sc2c(C(=O)O)c(=O)c3cc(F)c(-c4ccc(N)cc4)c(F)c3n21 (stereo not drawn)	≤ 6 ng/mL
COc1ccc(-c2cc3c(cc2F)c(=O)c(C(=O)O)c2n3C(C)S2)cc1 (stereo not drawn)	12 ng/mL
CCNc1ccc(-c2cc3c(cc2F)c(=O)c(C(=O)O)c2n3C(C)S2)cc1 (stereo not drawn)	≤ 6 ng/mL
CC1COc2c(N3CCN(C)CC3)c(F)cc3c(=O)c(C(=O)O)cn1c23 (racemic) [OFLX, ofloxacin, reference compound]	100 ng/mL
CC1Sc2c(C(=O)O)c(=O)c3cc(F)c(-c4ccccc4)c(F)c3n21 (stereo not drawn)	≤ 6 ng/mL
COc1c(-c2ccccc2)c(F)cc2c(=O)c(C(=O)O)c3n(c12)C(C)S3 (stereo not drawn)	≤ 6 ng/mL
CC1Sc2c(C(=O)O)c(=O)c3cc(F)c(-c4ccc(N)cc4)cc3n21 (stereo not drawn)	≤ 6 ng/mL
O=C(O)c1c2n(c3cc(-c4ccccc4)c(F)cc3c1=O)CS2	≤ 6 ng/mL
CC1Sc2c(C(=O)O)c(=O)c3cc(F)c(-c4ccccc4)cc3n21 (stereo not drawn)	≤ 6 ng/mL
O=C(O)c1c2n(c3c(F)c(-c4ccccc4)c(F)cc3c1=O)CS2	≤ 6 ng/mL
CC1Sc2c(C(=O)O)c(=O)c3cc(F)c(N4CCNCC4)cc3n21 (stereo not drawn) [Control, reference compound]	100 ng/mL
